The entries below come with measured BAF3-FGFR3 (MIN IL3) pIC50 values attached.
# experimental-target: Ba/F3-FGFR3-transfected cells (Homo sapiens, UniProt P22607)
# Construct: BAF3-FGFR3 (MIN IL3) pIC50; other: minus IL3
# Sequence (P22607 whole entry, change not shown): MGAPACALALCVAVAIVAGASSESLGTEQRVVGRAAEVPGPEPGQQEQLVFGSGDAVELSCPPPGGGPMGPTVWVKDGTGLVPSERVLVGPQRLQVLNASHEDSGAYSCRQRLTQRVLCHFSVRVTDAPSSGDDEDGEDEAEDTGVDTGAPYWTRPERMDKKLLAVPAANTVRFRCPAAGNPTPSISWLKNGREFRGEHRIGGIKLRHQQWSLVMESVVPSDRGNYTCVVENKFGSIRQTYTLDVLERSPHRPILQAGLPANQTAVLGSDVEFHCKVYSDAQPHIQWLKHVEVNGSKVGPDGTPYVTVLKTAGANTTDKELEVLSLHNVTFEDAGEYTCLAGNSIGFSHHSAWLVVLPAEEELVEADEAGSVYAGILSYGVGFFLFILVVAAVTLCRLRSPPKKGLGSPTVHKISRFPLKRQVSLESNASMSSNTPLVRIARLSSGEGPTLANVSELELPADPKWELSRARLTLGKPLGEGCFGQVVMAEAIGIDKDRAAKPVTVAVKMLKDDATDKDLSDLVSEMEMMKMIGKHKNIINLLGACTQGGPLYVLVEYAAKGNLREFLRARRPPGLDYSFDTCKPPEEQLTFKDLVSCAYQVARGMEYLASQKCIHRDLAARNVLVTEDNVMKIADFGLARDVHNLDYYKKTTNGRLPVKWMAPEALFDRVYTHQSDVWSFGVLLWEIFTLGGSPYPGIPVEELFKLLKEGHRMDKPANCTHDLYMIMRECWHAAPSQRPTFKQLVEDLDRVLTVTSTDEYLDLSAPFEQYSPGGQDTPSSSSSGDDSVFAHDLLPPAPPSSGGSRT
# experiment-summary: Ba/F3-FGFR3 (minus IL3) cellular proliferation assay, Alamar Blue
# Type: cell-based
Structures can show the parent of a compound that is named as a salt.

COc1cc(OC)c(Cl)c(N(C[C@H]2CCC(=O)N2)c2ccc3ncc(-c4cnn(C)c4)nc3n2)c1Cl :: ~6.83

Can you share its BAF3-FGFR3 (MIN IL3) pIC50? I mean this compound: COc1cc(OC)c(F)c(N(Cc2ncc[nH]2)c2ccc3ncc(-c4cnn(C)c4)nc3n2)c1 [23-lactate salt]
~8.14

Can you share its BAF3-FGFR3 (MIN IL3) pIC50? I mean this compound: CNCCN(c1ccc2ncc(-c3cnn(C)c3)nc2n1)c1c(Cl)ccc(OC)c1Cl
~5.66

Can you share its BAF3-FGFR3 (MIN IL3) pIC50? I mean this compound: COc1cc(/N=c2\ccc3ncc(-c4cnn(C)c4)nc3n2CCCN2CCCC2=O)cc(OC)c1
~7.58

Can you share its BAF3-FGFR3 (MIN IL3) pIC50? I mean this compound: COc1cc(/N=c2\ccc3ncc(-c4cnn(C)c4)nc3n2CCNC(C)=O)c(F)c(OC)c1
~8.13

Can you share its BAF3-FGFR3 (MIN IL3) pIC50? I mean this compound: COc1cc(O)cc(N(Cc2ncc[nH]2)c2ccc3ncc(-c4cnn(C)c4)nc3n2)c1
~8.00

Can you share its BAF3-FGFR3 (MIN IL3) pIC50? I mean this compound: CNCCn1/c(=N/c2c(Cl)ccc(OC)c2Cl)ccc2ncc(-c3cnn(C)c3)nc21
~5.11

Can you share its BAF3-FGFR3 (MIN IL3) pIC50? I mean this compound: COCC(O)Cn1c(=Nc2c(F)c(OC)cc(OC)c2F)ccc2ncc(-c3cnn(C)c3)nc21 (stereo not shown)
~8.03

Can you share its BAF3-FGFR3 (MIN IL3) pIC50? I mean this compound: COc1cc(/N=c2\ccc3ncc(-c4cnn(C)c4)nc3n2Cc2cnn(C)c2)c(F)c(OC)c1
~8.66

Can you share its BAF3-FGFR3 (MIN IL3) pIC50? I mean this compound: COc1cc(OC)c(F)c(N(CC2CCOC2)c2ccc3ncc(-c4cnn(C)c4)nc3n2)c1 (single isomer, unassigned) [Compound 172]
~7.06

Can you share its BAF3-FGFR3 (MIN IL3) pIC50? I mean this compound: COc1cc(OC)c(F)c(N(CCNC2COC2)c2ccc3ncc(-c4cnn(C)c4)nc3n2)c1
~7.67

Can you share its BAF3-FGFR3 (MIN IL3) pIC50? I mean this compound: COc1cc(OC)c(F)c(/N=c2\ccc3ncc(-c4cnn(C)c4)nc3n2CC2CCC(=O)N2)c1F (stereo not shown) [Compound 47]
~7.76

Can you share its BAF3-FGFR3 (MIN IL3) pIC50? I mean this compound: COc1cc(O)cc(N(Cc2ncc[nH]2)c2ccc3ncc(-c4cnn(C)c4)nc3n2)c1F
~8.46

====

# experimental-target: Ba/F3-FGFR3-transfected cells (Homo sapiens, UniProt P22607)
# Construct: BAF3-FGFR3 (MIN IL3) pIC50; other: minus IL3
# experiment-summary: Ba/F3-FGFR3 (minus IL3) cellular proliferation assay, Alamar Blue
# Type: cell-based
The entries below come with measured BAF3-FGFR3 (MIN IL3) pIC50 values attached.
Reply with the value as a number alone.

COc1cc(OC)cc(N(Cc2ncn(CCO)n2)c2ccc3ncc(-c4cnn(C)c4)nc3n2)c1 :: 6.20
COc1cc(OC)cc(N(CC2CCCOC2)c2ccc3ncc(-c4cnn(C)c4)nc3n2)c1 (stereo not shown) :: 6.65
COc1cc(OC)c(F)c(N(CC(=O)O)c2ccc3ncc(-c4cnn(C)c4)nc3n2)c1 :: 5.75
COc1cc(OC)cc(N(Cc2n[nH]c(=O)o2)c2ccc3ncc(-c4cnn(C)c4)nc3n2)c1 :: 6.05

API: value(readout=BAF3-FGFR3 (MIN IL3) pIC50, system=Ba/F3-FGFR3-transfected cells (Homo sapiens, UniProt P22607)) for record COc1cc(OC)c(F)c(N(CCN(C2COC2)C2COC2)c2ccc3ncc(-c4cnn(C)c4)nc3n2)c1F (single isomer, unassigned)
7.34
